- System: T1, AFP158/HLA-A*02:01 complex (human)
- T1 construct: flowed as analyte in SPR
- Measurement Description: SPR, crude scFv captured, pMHC analyte;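 further: pMHC analyte injected at three concentrations, association phase of one hundred seconds, then running buffer for dissociation, rates fitted from both curves, KD derived from the rates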
Observed Property: pKd
Recall that pKd is obtained by taking minus log10 of the concentration measured in molar.

Binder	pKd
AS170036 VL1VH1-57M98F (scFv, also called 13-AS170036 VL1VH1-57M98F) scFv: QSALTQPRSVSGSPGQSVTISCAGTSSDVGSENYVSWYQQHPGKAPKLMIYQVNKRASGVPDRFSGSKSGNTASLTISGLQAEDEADYYCASYRSSDFNIVFGGGTKLTVLGGGGSGGGGSGGGGSEVQLVESGGGLVQPGGSLRLSCAASGFTFSSYAMSWVRQAPGKGLEWVSTINSGTGMPYYADSVKGRFTISRDNSKNTLYLQMNSLRAEDTAVYYCAKNFFDGSWFLGPPAMDYWGQGTLVTVSSHHHHHH	7.62
AS170036 VL1VH1-56Y98I (scFv, also called 02-AS170036 VL1VH1-56Y98I) scFv: QSALTQPRSVSGSPGQSVTISCAGTSSDVGSENYVSWYQQHPGKAPKLMIYQVNKRASGVPDRFSGSKSGNTASLTISGLQAEDEADYYCASYRSSDINIVFGGGTKLTVLGGGGSGGGGSGGGGSEVQLVESGGGLVQPGGSLRLSCAASGFTFSSYAMSWVRQAPGKGLEWVSTINSGTYSPYYADSVKGRFTISRDNSKNTLYLQMNSLRAEDTAVYYCAKNFFDGSWFLGPPAMDYWGQGTLVTVSSHHHHHH	8.17

Now for the binder whose pKd we want.
stdin: Report pKd for AS170036 VL1VH1-56N108D (scFv, also called 20-AS170036 VL1VH1-56N108D) scFv: QSALTQPRSVSGSPGQSVTISCAGTSSDVGSENYVSWYQQHPGKAPKLMIYQVNKRASGVPDRFSGSKSGNTASLTISGLQAEDEADYYCASYRSSDHNIVFGGGTKLTVLGGGGSGGGGSGGGGSEVQLVESGGGLVQPGGSLRLSCAASGFTFSSYAMSWVRQAPGKGLEWVSTINSGTNSPYYADSVKGRFTISRDNSKNTLYLQMNSLRAEDTAVYYCAKNFFDGSWFLDPPAMDYWGQGTLVTVSSHHHHHH please.
stdout: 7.77
